TARGET OR TEST SYSTEM: YAP-TEAD protein interaction (His-TEAD1 (209-426) protein, Bio-YAP peptide (60-100)) (Homo sapiens, UniProt P28347)
Sequence (P28347 209-426): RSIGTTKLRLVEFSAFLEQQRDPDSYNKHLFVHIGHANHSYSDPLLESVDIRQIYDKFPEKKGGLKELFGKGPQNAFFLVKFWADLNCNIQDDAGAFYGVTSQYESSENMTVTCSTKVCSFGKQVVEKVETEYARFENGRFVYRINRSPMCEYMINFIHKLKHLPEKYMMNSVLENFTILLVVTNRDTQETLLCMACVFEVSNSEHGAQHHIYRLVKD
MEASUREMENT DESCRIPTION: YAP-TEAD protein interaction HTRF experiment
EXPERIMENTAL CONTEXT: His-TEAD1 (209-426) 10 nM, Bio-YAP peptide 50 nM, read-out: Activity of each compound in blocking YAP-TEAD protein interaction (grades of IC50 values)
Recorded IC50 by entry

Worked examples follow.
| COMPOUND | IC50 |
| --- | --- |
| [2H]C1([2H])CC[C@]([2H])([C@@]2(c3ccccc3)Cc3c(cc(F)c(Cl)c3-c3c(C(=O)NC)cc4c(c3F)Oc3c(cnn(C5CC(F)(F)C5)c3=O)O4)O2)N1 (atropisomer, axis not shown) [Compound 158] | < 50 nM |
| Cn1ccc2c(c1=O)Oc1c(cc(C(N)=O)c(-c3c(Cl)c(F)cc4c3C[C@](c3ccccc3)([C@@H]3CCCN3)O4)c1F)O2 (atropisomer, axis not shown) [Compound 135] | < 50 nM |

[ask] Determine from records and report IC50 for NC(=O)c1cc2c(c(F)c1-c1c(Cl)c(F)cc3c1C[C@](c1ccccc1)([C@@H]1CCCN1)O3)Oc1cnn(C3CC3)c(=O)c1O2 [Compound 112]
[reply] < 50 nM

---

TARGET OR TEST SYSTEM: YAP-TEAD protein interaction (His-TEAD1 (209-426) protein, Bio-YAP peptide (60-100)) (Homo sapiens)
MEASUREMENT DESCRIPTION: YAP-TEAD protein interaction HTRF experiment
EXPERIMENTAL CONTEXT: His-TEAD1 (209-426) 10 nM, Bio-YAP peptide 50 nM, read-out: Activity of each compound in blocking YAP-TEAD protein interaction (grades of IC50 values)
Listing of recorded IC50 by entry.

The cases that follow already have their IC50 on record.
| COMPOUND | IC50 |
| --- | --- |
| [2H]C1([2H])CC[C@]([2H])([C@@]2(c3ccccc3)Cc3c(cc(F)c(Cl)c3-c3c(C(N)=O)cc4c(c3F)Oc3c(cnn(CCC(F)(F)F)c3=O)O4)O2)N1 (atropisomer, axis not shown) | < 50 nM |
| NC(=O)c1cc2c(c(F)c1-c1c(Cl)c(F)cc3c1C[C@](c1ccccc1)([C@@H]1CCCN1)O3)Oc1nnccc1O2 | < 50 nM |

Kindly review the next compound as well.
[ask] Note IC50 for the compound shown: Cn1ccc2c(c1=O)Oc1cc(C(N)=O)c(-c3c(Cl)c(F)cc4c3C[C@](c3ccccc3)([C@@H]3CCCN3)O4)c(F)c1O2 (atropisomer, axis not shown)
[reply] < 50 nM

---

TARGET OR TEST SYSTEM: YAP-TEAD protein interaction (His-TEAD1 (209-426) protein, Bio-YAP peptide (60-100)) (Homo sapiens, UniProt P28347)
MEASUREMENT DESCRIPTION: YAP-TEAD protein interaction HTRF experiment
EXPERIMENTAL CONTEXT: His-TEAD1 (209-426) 10 nM, Bio-YAP peptide 50 nM, read-out: Activity of each compound in blocking YAP-TEAD protein interaction (grades of IC50 values)
IC50 by entry:

// known answers, use as guide
| MOLECULE | READOUT VALUE |
| --- | --- |
| Cn1cc2c(n1)COc1c-2cc(C(N)=O)c(-c2c(Cl)c(F)cc3c2C[C@](c2ccccc2)([C@@H]2CC(O)CN2)O3)c1F (some centres unmarked) [Compound 55] | 0.5 to 5 µM |
| NC(=O)c1cn2ccnc2c(F)c1-c1c(Cl)c(F)cc2c1C[C@](c1ccccc1)([C@@H]1CCCN1)O2 (atropisomer, axis not shown) [Compound I-11] | < 0.05 µM |
| CNC[C@@]1(c2ccccc2)Cc2c(cc(F)c(Cl)c2-c2c(C(N)=O)cc3c(c2F)OCc2nn(C)cc2-3)O1 (atropisomer, axis not shown) [Compound 41] | < 0.05 µM |
| NC(=O)c1cc2c(c(F)c1-c1c(Cl)c(F)cc3c1C[C@](c1ccccc1)([C@@H]1CCCN1)O3)[C@H](O)CC2 (atropisomer, axis not shown) [Compound I-58] | 0.05 to 0.5 µM |
| NC(=O)c1cc2c(c(F)c1-c1c(Cl)c(F)cc3c1CC(c1ccccc1)(C1CCCN1)O3)OCCN2 (centres unmarked) [Compound I-19] | < 0.05 µM |
| [2H]C1([2H])CC[C@]([2H])([C@@]2(c3ccccc3)Cc3c(cc(F)c(Cl)c3-c3c(C(=O)NC)cc4c(c3F)Oc3c(cnn(CCC(F)(F)F)c3=O)O4)O2)N1 (atropisomer, axis not shown) [Compound 159] | < 0.05 µM |
| Cn1cc2c(n1)COc1c-2cc(C(N)=O)c(-c2c(Cl)c(F)cc3c2C[C@](c2ccccc2)([C@@H]2CCCN2)O3)c1F (atropisomer, axis not shown) [Compound 3′] | 0.05 to 0.5 µM |
| Cn1nc2c(cc1=O)Oc1c(cc(C(N)=O)c(-c3c(Cl)c(F)cc4c3C[C@](c3ccccc3)([C@@H]3CCCN3)O4)c1F)O2 (atropisomer, axis not shown) [Compound 123] | < 0.05 µM |
| NC(=O)c1cc2c(c(F)c1-c1c(Cl)c(F)cc3c1C[C@](c1ccccc1)([C@@H]1CCCN1)O3)Oc1ncn(CCF)c(=O)c1O2 (atropisomer, axis not shown) [Compound 138] | < 0.05 µM |
| NC(=O)c1cc2cccnc2c(F)c1-c1c(Cl)c(F)cc2c1C[C@](c1ccccc1)([C@@H]1CCCN1)O2 (atropisomer, axis not shown) [Compound 4] | < 0.05 µM |

Consider now this further molecule.
[ask] Tell me measured IC50 for Cn1ncc2c(F)c(-c3c(Cl)c(F)cc4c3C[C@](c3ccccc3)([C@@H]3CCCN3)O4)c(C(N)=O)cc21 (atropisomer, axis not shown) [Compound I-28] please.
[reply] < 0.05 µM

---

TARGET OR TEST SYSTEM: YAP-TEAD protein interaction (His-TEAD1 (209-426) protein, Bio-YAP peptide (60-100)) (Homo sapiens, UniProt P28347)
MEASUREMENT DESCRIPTION: YAP-TEAD protein interaction HTRF experiment
EXPERIMENTAL CONTEXT: His-TEAD1 (209-426) 10 nM, Bio-YAP peptide 50 nM, read-out: Activity of each compound in blocking YAP-TEAD protein interaction (grades of IC50 values)
pIC50: −log10 of the molar value.
MEASURED ENDPOINT: pIC50

| MOLECULE | pIC50 |
| --- | --- |
| CNC(=O)c1cc2c(c(F)c1-c1c(Cl)c(F)cc3c1C[C@](c1ccccc1)([C@@H]1CCCN1)O3)[C@@H](O)CC2 (atropisomer, axis not shown) | > 7.30 |
| Cc1nnc2n1-c1cc(C(N)=O)c(-c3c(Cl)c(F)cc4c3C[C@](c3ccccc3)([C@@H]3CCCN3)O4)c(F)c1OC2 (atropisomer, axis not shown) | 6.30 to 7.30 |

[ask] Please look at this molecule and report its pIC50: Cn1nc2c(cc1=O)Oc1cc(C(N)=O)c(-c3c(Cl)c(F)cc4c3C[C@](c3ccccc3)([C@@H]3CCCN3)O4)c(F)c1O2 (atropisomer, axis not shown)
[reply] > 7.30

[ask] For the molecule CNC[C@@]1(c2ccccc2)Cc2c(cc(F)c(Cl)c2-c2c(C(N)=O)cc3c(ccn3C)c2F)O1 (atropisomer, axis not shown) , give its reported pIC50.
[reply] > 7.30

[ask] Fill in reported pIC50 for this entry: COCCn1ncc2c(c1=O)Oc1c(cc(C(N)=O)c(-c3c(Cl)c(F)cc4c3C[C@](c3ccccc3)([C@@H]3CCCN3)O4)c1F)O2 (atropisomer, axis not shown)
[reply] > 7.30

---

TARGET OR TEST SYSTEM: YAP-TEAD protein interaction (His-TEAD1 (209-426) protein, Bio-YAP peptide (60-100)) (Homo sapiens, UniProt P28347)
MEASUREMENT DESCRIPTION: YAP-TEAD protein interaction HTRF experiment
EXPERIMENTAL CONTEXT: His-TEAD1 (209-426) 10 nM, Bio-YAP peptide 50 nM, read-out: Activity of each compound in blocking YAP-TEAD protein interaction (grades of IC50 values)
Reported IC50 values for the following molecules.

| MOLECULE | IC50 |
| --- | --- |
| NC(=O)c1cc2c(c(F)c1-c1c(Cl)c(F)cc3c1C[C@](c1ccccc1)([C@@H]1CCCN1)O3)Oc1cnn(CCF)c(=O)c1O2 (atropisomer, axis not shown) | < 0.05 µM |
| NC(=O)c1cc2c(c(F)c1-c1c(Cl)c(F)cc3c1C[C@](c1ccccc1)([C@@H]1CCCN1)O3)Oc1cc(=O)n(C3CC3)nc1O2 (atropisomer, axis not shown) | < 0.05 µM |

[ask] Respond only with IC50 recorded for NC(=O)c1cc2c(c(F)c1-c1c(Cl)c(F)cc3c1C[C@](c1ccccc1)([C@@H]1CCCN1)O3)OC(CO)C2 (stereo partly drawn)
[reply] < 0.05 µM
